These entries and their values trace back to patent US10544143B2.

- Study System: human TLR7 (Homo sapiens (Human), UniProt Q9NYK1)
- Sequence (Q9NYK1 27-1049): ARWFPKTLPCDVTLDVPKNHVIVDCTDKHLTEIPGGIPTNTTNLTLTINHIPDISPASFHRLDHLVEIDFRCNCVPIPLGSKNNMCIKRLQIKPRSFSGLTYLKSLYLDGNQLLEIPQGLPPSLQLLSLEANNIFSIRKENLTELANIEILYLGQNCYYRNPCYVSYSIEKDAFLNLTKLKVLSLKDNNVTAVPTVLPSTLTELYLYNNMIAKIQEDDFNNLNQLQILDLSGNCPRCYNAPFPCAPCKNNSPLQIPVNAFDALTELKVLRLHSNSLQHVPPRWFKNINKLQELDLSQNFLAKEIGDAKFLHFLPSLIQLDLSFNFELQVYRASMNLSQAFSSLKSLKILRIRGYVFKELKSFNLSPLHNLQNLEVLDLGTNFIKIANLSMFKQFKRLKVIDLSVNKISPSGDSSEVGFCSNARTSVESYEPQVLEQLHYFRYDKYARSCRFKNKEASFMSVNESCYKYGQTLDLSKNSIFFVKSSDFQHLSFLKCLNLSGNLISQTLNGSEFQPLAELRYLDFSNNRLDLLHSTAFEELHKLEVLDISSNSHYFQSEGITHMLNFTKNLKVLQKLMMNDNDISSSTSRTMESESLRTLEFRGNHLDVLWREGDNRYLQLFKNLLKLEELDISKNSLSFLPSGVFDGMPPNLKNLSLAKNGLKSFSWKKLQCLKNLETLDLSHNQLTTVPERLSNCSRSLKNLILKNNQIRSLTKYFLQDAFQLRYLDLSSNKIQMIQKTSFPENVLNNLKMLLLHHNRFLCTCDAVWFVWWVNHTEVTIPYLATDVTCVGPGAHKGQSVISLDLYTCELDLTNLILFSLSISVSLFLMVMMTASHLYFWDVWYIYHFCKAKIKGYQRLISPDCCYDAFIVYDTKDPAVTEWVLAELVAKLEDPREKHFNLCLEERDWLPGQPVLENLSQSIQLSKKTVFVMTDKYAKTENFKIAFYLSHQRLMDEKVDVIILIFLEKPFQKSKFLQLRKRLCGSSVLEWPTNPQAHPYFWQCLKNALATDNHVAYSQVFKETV
- Assay Remarks: TLR7 inhibition reporter assay (HEK-Blue SEAP)
- Assay type: cell-based
- Condition Info: HEK-Blue human TLR7 cells, gardiquimod 7.5 μM
Quantity Measured: IC50 (nM)
Respond numerically; units are nM and should not be typed.

Record excerpt, results attached:
> print(dat)
                                   compound                              study.system  units.of.measure  experimental.result
1  Cc1c(-c2[nH]c3ccc(N4CCN(C(C)C)C[C@H]4C)nc3c2C(C)C)cn2ncnc2c1C  human TLR7 (Homo sapiens (Human), UniProt Q9NYK1)                nM                  1.9
2  Cc1c(-c2[nH]c3ccc(N4CCN(C(=O)CN(C)C)[C@@H](C)C4)nc3c2C(C)C)cn2ncnc2c1C  human TLR7 (Homo sapiens (Human), UniProt Q9NYK1)                nM                  0.5
3  Cc1c(-c2[nH]c3ccc(N4CCN(C(=O)CNC(C)C)C[C@H]4C)nc3c2C(C)C)cn2ncnc2c1C  human TLR7 (Homo sapiens (Human), UniProt Q9NYK1)                nM                  0.7
4  Cc1c(-c2[nH]c3ccc(N4C[C@@H](C)N(C(=O)CCN5CCC5)C[C@@H]4C)nc3c2C(C)C)cn2ncnc2c1C  human TLR7 (Homo sapiens (Human), UniProt Q9NYK1)                nM                 0.62
5  COc1cc(-c2[nH]c3ccc(C4CCC(N5CCC(F)C5)CC4)nc3c2C(C)C)cn2ncnc12 (stereo not drawn) [Example 1072]  human TLR7 (Homo sapiens (Human), UniProt Q9NYK1)                nM                  2.9

Lab note: next compound to report on.
Q. Request the reported IC50 associated with Cc1c(-c2[nH]c3ccc(N4[C@@H]5CC[C@H]4CN(C(=O)CN4CCCC4)C5)nc3c2C(C)C)cn2ncnc2c1C
A. 0.61
